Consider the following compounds; for each one, report its Ki.

Query: For D(1A) dopamine receptor (Rattus norvegicus, UniProt P18901), provide Ki of Cn1ccc2cc(NC(=O)Nc3cccnc3)ccc21 [SB 200646] please.
Reply: > 10 µM

Query: For D(1A) dopamine receptor (Rattus norvegicus, UniProt P18901), provide Ki of CC(N)Cc1c[nH]c2ccc(OCc3cccs3)cc12 (configuration not stated) [NSC_5311036] please.
Reply: > 10 µM

----------
# TEST_TARGET: Alpha-1A adrenergic receptor (Oryctolagus cuniculus)
# Sequence (O02824 whole entry): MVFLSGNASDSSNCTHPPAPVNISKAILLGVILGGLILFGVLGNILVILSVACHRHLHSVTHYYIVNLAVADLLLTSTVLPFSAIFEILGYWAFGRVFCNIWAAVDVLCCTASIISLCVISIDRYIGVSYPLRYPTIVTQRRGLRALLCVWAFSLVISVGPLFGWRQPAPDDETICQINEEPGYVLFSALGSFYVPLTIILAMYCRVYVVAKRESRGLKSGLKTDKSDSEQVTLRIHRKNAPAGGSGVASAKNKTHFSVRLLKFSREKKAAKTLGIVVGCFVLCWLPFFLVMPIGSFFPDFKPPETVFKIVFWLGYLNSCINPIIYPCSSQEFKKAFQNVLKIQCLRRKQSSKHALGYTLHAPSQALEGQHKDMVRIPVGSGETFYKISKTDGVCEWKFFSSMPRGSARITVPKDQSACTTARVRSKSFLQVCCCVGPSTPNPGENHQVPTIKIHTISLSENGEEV
pKi: −log10 of the molar value.
ENDPOINT_NAME: pKi

Query: Could you tell me which pKi is on file for CC(N)Cc1c[nH]c2ccc(OCc3cccs3)cc12 (stereo unspecified) ?
Reply: < 5.00

----------
Target chain: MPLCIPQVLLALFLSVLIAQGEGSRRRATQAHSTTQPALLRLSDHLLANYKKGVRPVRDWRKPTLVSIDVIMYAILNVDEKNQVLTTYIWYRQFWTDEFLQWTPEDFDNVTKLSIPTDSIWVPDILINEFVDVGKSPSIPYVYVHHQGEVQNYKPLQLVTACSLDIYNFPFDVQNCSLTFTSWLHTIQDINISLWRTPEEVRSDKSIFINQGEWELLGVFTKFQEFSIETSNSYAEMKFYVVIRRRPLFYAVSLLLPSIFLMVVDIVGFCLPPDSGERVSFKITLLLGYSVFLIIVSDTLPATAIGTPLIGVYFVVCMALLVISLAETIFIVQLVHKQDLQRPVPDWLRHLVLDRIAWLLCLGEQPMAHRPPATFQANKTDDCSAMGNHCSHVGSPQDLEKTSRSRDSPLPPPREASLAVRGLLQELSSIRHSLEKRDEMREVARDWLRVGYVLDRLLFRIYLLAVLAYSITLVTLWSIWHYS
ENDPOINT_NAME: Ki

Query: Could you tell me which Ki is on file for Cn1ccc2cc(NC(=O)Nc3cccnc3)ccc21 [SB 200646] ?
Reply: > 10 µM

----------
# TEST_TARGET: Alpha-2B adrenergic receptor (Rattus norvegicus, UniProt P19328)
# Sequence (P19328 whole entry): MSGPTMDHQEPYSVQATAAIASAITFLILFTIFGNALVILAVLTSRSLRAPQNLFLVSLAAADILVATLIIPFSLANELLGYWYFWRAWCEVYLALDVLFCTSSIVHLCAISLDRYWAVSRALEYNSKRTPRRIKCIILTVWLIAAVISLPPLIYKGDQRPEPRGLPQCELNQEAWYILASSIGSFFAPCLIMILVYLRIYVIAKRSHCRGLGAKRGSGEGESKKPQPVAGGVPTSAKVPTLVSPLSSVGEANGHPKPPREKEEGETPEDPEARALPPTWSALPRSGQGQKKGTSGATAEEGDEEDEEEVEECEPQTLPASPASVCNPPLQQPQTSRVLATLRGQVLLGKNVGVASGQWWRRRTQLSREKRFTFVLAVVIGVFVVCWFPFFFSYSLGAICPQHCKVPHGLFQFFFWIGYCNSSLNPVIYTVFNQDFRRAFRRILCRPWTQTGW
pKi: −log10 of the molar value.
ENDPOINT_NAME: pKi

Query: Could you tell me which pKi is on file for Cn1ccc2cc(NC(=O)Nc3cccnc3)ccc21 [SB 200646] ?
Reply: < 5.00

----------
Target sequence: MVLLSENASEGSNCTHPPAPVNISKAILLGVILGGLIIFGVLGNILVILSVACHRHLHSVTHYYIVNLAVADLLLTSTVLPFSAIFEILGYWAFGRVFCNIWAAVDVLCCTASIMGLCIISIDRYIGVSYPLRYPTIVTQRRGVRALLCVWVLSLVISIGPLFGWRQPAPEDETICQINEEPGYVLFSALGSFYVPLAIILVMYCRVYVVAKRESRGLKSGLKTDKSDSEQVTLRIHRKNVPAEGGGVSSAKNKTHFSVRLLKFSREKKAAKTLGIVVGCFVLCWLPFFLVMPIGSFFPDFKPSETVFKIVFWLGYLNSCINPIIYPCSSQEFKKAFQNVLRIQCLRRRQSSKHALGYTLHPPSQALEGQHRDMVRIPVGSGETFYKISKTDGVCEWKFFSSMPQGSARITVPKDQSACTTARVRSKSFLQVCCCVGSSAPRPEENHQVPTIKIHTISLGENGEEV
ENDPOINT_NAME: Ki

Query: Could you tell me which Ki is on file for Cn1ccc2cc(NC(=O)Nc3cccnc3)ccc21 [SB 200646] ?
Reply: > 10 µM

These measurements were taken from BindingDB's records for doi:10.1016/0166-4328(96)00087-3.
